tested.on: T1, P1243_AMBAM (Amblyomma americanum, UniProt A0A0C9S461 26-123)
T1 sequence: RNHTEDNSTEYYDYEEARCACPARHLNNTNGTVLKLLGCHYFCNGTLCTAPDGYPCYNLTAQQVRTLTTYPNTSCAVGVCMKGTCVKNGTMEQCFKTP
assay.explanation: BLI;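 further: biolayer interferometry on an Octet system: chemokines at several doses tested against tick chemokine-binding proteins, association, equilibrium and dissociation curves fitted to derive Kd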
parameter: pKd
Numbers only, as −log10 of the molar value.

See these solved cases before continuing.
# binder, observed.result
records = [
    ("CCL3_HUMAN (ligand) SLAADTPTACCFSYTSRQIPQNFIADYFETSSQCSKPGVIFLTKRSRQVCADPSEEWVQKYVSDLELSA", 8.28),
    ("CCL8_HUMAN (ligand, UniProt P80075 24-99, looked up) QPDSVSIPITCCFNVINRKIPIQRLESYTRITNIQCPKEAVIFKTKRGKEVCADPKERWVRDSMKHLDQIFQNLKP", 7.66),
    ("CCL1_HUMAN (ligand) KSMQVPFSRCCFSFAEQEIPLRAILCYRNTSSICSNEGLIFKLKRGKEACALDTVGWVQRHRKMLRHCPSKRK", 7.67),
    ("CCL5_HUMAN (ligand) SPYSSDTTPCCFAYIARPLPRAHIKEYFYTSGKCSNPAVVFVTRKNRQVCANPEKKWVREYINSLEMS", 8.76),
]

Query :: Item under review: CCL17_HUMAN (ligand) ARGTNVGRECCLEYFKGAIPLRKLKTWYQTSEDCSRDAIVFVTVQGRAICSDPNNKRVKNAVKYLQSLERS . Reported pKd?
Result :: 9.13
